Kindly state EC50 for each of the entries shown.
Biological target: human 5-HT2A receptor (Homo sapiens, UniProt P28223)
Construct: expressed in transfected cells; host or cells: NIH/3T3 cells stably expressing the receptor
Sequence (P28223 whole entry): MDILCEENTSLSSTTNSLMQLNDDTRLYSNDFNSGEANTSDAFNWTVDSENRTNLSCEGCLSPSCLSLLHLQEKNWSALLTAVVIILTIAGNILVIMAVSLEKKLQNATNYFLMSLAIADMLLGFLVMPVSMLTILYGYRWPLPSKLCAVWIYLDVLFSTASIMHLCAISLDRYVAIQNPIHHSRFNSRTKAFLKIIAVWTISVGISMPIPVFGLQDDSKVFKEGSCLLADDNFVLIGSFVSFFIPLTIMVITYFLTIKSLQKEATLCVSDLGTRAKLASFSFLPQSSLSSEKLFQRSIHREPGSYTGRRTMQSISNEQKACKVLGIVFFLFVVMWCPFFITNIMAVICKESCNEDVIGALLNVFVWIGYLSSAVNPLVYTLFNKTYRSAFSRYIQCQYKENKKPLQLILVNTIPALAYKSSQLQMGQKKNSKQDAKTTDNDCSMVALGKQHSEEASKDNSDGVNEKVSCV
Experiment: 5-HT2A receptor activation assessment (IP1 accumulation, NIH/3T3 cells)
Assay type: cell-based
Conditions: values for hydrochloride salts; read-out: IC50 values at the 5-HT2A receptor
Numbers only, in nM.

INSERT INTO measurements (molecule, readout_type, unit_spec, measured_result) VALUES
  ('C=CC(N)Cc1cc(OC)c(Br)cc1OC.Cl (centres unmarked) [DH-4C-B, hydrochloride]', 'EC50', 'nM', 22.1);

Please examine the following record next.
EC50 of C#CC(N)Cc1cc(OC)c(Br)cc1OC.Cl (centres unmarked) [DDH-4C-B, hydrochloride] on human 5-HT2A receptor (Homo sapiens, UniProt P28223)? 40.7

* * *

Biological target: human serotonin (5-HT) transporter (hSERT) (Homo sapiens)
Construct: expressed in transfected cells; host or cells: HEK 293 cells (Invitrogen), stably transfected
Sequence (P31645 whole entry): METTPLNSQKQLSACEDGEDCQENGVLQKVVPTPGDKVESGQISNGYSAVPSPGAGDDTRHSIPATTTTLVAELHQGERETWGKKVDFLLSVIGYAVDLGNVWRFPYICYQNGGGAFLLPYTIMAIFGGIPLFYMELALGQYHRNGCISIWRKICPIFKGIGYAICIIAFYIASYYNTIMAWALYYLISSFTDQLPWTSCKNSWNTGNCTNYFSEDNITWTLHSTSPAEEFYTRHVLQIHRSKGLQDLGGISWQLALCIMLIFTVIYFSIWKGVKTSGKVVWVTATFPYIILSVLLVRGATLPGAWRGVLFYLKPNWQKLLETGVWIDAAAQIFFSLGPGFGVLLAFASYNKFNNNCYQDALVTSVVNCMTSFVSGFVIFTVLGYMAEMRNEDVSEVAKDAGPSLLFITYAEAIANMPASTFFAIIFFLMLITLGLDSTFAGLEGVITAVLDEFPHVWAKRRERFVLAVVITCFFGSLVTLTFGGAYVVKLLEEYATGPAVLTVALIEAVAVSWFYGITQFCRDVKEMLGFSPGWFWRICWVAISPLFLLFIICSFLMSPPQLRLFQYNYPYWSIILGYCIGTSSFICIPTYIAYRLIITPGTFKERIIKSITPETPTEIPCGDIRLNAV
Assay: Serotonin uptake transport inhibition ([3H]5-HT uptake in hSERT-transfected HEK 293 cells)
Assay type: cell-based
Settings: screening at 1 μM and 10 μM (n=3); FIG. 9
Structures can show the parent of a compound that is named as a salt.
READOUT_TYPE: IC50

Recorded IC50, per entry:
INSERT INTO measurements (compound, measured_result) VALUES
  ('C=CC(Cc1ccc2c(c1)OCO2)NC.Cl (centres unmarked) [DH-MBDB, hydrochloride]', '1 to 10 µM'),
  ('C#CC(Cc1ccc2c(c1)OCO2)NC (centres unmarked) [DDH-MBDB, hydrochloride]', '> 10 µM'),
  ('C=CC(N)Cc1ccc2c(c1)OCO2.Cl (centres unmarked) [DH-BDB, hydrochloride]', '1 to 10 µM'),
  ('C=CC(N)Cc1cc(OC)c(Br)cc1OC.Cl (centres unmarked) [DH-4C-B, hydrochloride]', '> 10 µM');

Now look at this entry.
For the compound C#CC(N)Cc1ccc2c(c1)OCO2 (centres unmarked) [DDH-BDB, hydrochloride] , what IC50 is on record? > 10 µM
